System: A2780
Procedure details: Single agent cytotoxicity assay (CellTiter-Glo)
Type: cell-based
Condition summary: Homo sapiens, CTG assay, 72 h, read-out: relative IC50
Description: A2780, SK-OV-3, OVCAR-3, NCI-H460, NCI-H1975, NCI-H2122, 5637 and HT1376 were cultured in RPMI Medium 1640 (Invitrogen-22400105) supplemented with 10% fetal bovine serum (FBS; Invitrogen-10099141). All the cell lines were maintained in a humidified incubator at 37° C. with 5% CO2. […] In Stage 1 the IC50 (using 5 or more concentrations) of each individual compound cisplatin, carboplatin, gemcitabine and NUC-1031) in the relevant cell lines was determined.
Readout kind: IC50 (nM)

compound="C[C@H](NP(=O)(OC[C@H]1O[C@@H](n2ccc(N)nc2=O)C(F)(F)[C@@H]1O)Oc1ccccc1)C(=O)OCc1ccccc1 (stereo partly shown)" result_number=16

Each recorded value in this set is attributed to patent US20190381084A1.
